target: RNA-binding protein pos-1 (Caenorhabditis elegans, UniProt G5EF15); test: disruptors of C. elegans POS-1 RNA interaction – biochemical, fluorescence polarization, dose response (AID 1964);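 note: purified POS-1 fused to maltose binding protein made in E. coli; potency of compounds blocking POS-1 binding to fluorescent RNA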
Sequence (G5EF15 whole entry, the tested form may be a part): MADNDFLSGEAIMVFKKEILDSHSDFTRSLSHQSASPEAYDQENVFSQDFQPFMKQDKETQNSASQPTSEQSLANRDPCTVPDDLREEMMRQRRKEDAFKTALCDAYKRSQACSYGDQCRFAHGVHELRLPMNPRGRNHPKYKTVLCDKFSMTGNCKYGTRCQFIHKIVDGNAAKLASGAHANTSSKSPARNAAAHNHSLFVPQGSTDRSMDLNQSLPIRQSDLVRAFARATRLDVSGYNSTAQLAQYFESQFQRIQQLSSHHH
The source made the active and inactive calls.

Molecule: COc1ccc2c(-c3ccccc3)cc(SCC(N)=O)nc2c1
EC50: > 300 µM (not active)
--
Molecule: COc1cccc(N2C(=O)NC(=O)/C(=C/c3ccc([N+](=O)[O-])s3)C2=O)c1
EC50: 34.4 µM (active)
--
Molecule: C=CCOc1cccc(C2C(C(=O)c3ccc(C)o3)=C(O)C(=O)N2c2nccs2)c1 (stereo unspecified)
EC50: > 300 µM (inconclusive)
--
Molecule: Cc1cccn2c(=O)c3cc(C(=O)NCc4ccco4)c(=N)n(C(C)C)c3nc12
EC50: 40.5 µM (active)
--
Molecule: Cn1nc(C(F)(F)F)cc1-c1ccc(/C=C(\C#N)C(=O)c2ccccc2)s1
EC50: 21.1 µM (inconclusive)
--
Molecule: CC1(C)CC(=O)C2=C(C1)OC(N)=C(C#N)C2c1cc2c(cc1[N+](=O)[O-])OCO2 (stereo unspecified)
EC50: 18 µM (active)
--
Molecule: Cc1cc(C=C2C(=O)c3ccccc3C2=O)c(C)n1-c1ccc(Cl)cc1
EC50: > 300 µM (not active)
--
Molecule: CCC(=O)Nc1cc(C)c(NC(=O)CCc2ccccc2)cn1
EC50: 24 µM (active)
--
Molecule: CC(C)(C)OC(=O)NCCCC1=CC2=CC(=O)C(C)(OC(=O)C3CCCC3)C(=O)C2=CO1 (stereo unspecified)
EC50: 18.8 µM (active)
--
Molecule: ClCc1nc2ccccc2n1Cc1ccccc1
EC50: 2.24 µM (inconclusive)
--
Molecule: O=C(NCc1ccccn1)C1Nc2ccc(OC(F)(F)F)cc2C2C=CCC12 (stereo unspecified)
EC50: > 300 µM (not active)
--
Molecule: CCOCCCNc1nc2nc3ccc(C)cn3c(=O)c2cc1C(=O)NCC1CCCO1 (stereo unspecified)
EC50: > 300 µM (not active)
--
Molecule: O=[N+]([O-])c1cccc(-c2cn3nc(-c4ccccc4)c(-c4ccccc4)nc3n2)c1
EC50: > 300 µM (not active)
--
Molecule: O=C(Cn1cc(C=C2C(=O)NC(=O)NC2=O)c2ccccc21)NCC1CCCO1 (stereo unspecified)
EC50: 16.7 µM (active)
--
Molecule: Cc1n[nH]c(S/C(=C\c2ccc(-c3ccc(C(=O)O)c(Cl)c3)o2)C(=O)O)n1
EC50: 1.76 µM (active)
--
Molecule: O=C(N/N=C\c1ccc(-c2ccc(Cl)c(Cl)c2)o1)C(=O)N1CCCC1
EC50: 49.5 µM (active)

---

test system: H9c2; assay: cells; type: functional, cell-based; details: Rattus norvegicus, H9c2, Myocardium;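 note: cell death induced by hydrogen peroxide oxidative stress; compound pretreatment for 60 min then peroxide exposure for 2 h; potency is for protecting the cells against peroxide damage rather than for killing them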;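 note: confirmatory concentration-response retest of ultra-high-throughput screening hits for modulation of myocardial damage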
Activity calls are given as the source filed them.
Outcome codes: active, inactive

Cpd Smiles: Cc1cnc(NC(=O)CSc2nc(O)c3ccccc3n2)s1
Label: inactive
--
Cpd Smiles: Fc1ccc(-n2cc(-c3ccccc3)c3c(N4CCOCC4)ncnc32)cc1
Label: inactive
--
Cpd Smiles: O=C(Nc1ccc2nc(N3CCOCC3)sc2c1)c1cc2ccccc2o1
Label: inactive
--
Cpd Smiles: C=CCn1cnc2c(c1=O)c1nc3ccccc3nc1n2/N=C/c1cc(OC)c(OC)c(OC)c1
Label: inactive
--
Cpd Smiles: CCn1c(O)c(/C=N/N=C2CCCCC2)c2cc(C3=NNC(=O)CC3)ccc21
Label: inactive
--
Cpd Smiles: COc1ccc2nc(O)c(CN(c3ccccc3OC)S(=O)(=O)c3ccccc3)cc2c1
Label: active

---

test system: INS1; experiment: INS-1E survival protection against cytokine death – cell-based, luminescence, retest, dose response (AID 449756); assay type: functional; conditions: Rattus norvegicus;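 note: cell death triggered by IL-1 beta plus TNF-alpha plus IFN-gamma mixture; protective hits raise ATP signal compared with cytokine alone wells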
Active and inactive are the calls of the source.
Quantity Measured: AC50

Cpd Smiles: Brc1ccc(-[n+]2c(-c3ccccc3)cc(-c3ccccc3)cc2-c2ccccc2)cc1.[O-][Cl+3]([O-])([O-])[O-]
Value Measured: 2.04 µM (active)
--
Cpd Smiles: Cc1ccc(S(=O)(=O)Nc2ccc(O)c3ccccc23)c(C)c1
Value Measured: 5.61 µM (active)
--
Cpd Smiles: CCCCCCCCCCOC(=O)Cn1c(COc2cccc(OC)c2)[n+](C)c2ccccc21
Value Measured: 2.94 µM (active)
--
Cpd Smiles: N=C(NNC(=O)c1sccc1OCc1ccc(Cl)cc1Cl)c1ccccn1
Value Measured: 5.2 µM (active)
--
Cpd Smiles: COc1ccccc1CNc1ncnc2sccc12
Value Measured: 4.26 µM (active)
--
Cpd Smiles: CCOC(=O)N1CCN(S(=O)(=O)c2ccc(C(=O)NNc3nc4ccc(Cl)cc4s3)cc2)CC1
Value Measured: 3.39 µM (active)

---

Measured AC50 by item
biological target: UniProt P10635
Quantity Measured: AC50

Cpd Smiles: COc1ccc(O[C@H]2C=C[C@@H](c3ccccc3)O[C@H]2COC(=O)CC/C(C)=N\O[C@@H](C)c2cn([C@H]3COC[C@H]3O)nn2)cc1
Value Measured: 7.94 µM (inconclusive)
--
Cpd Smiles: CC(=O)c1c(O)cc(=O)n(-c2ccccc2)c1-c1ccc(C)cc1
Value Measured: 0.00501 µM (inconclusive)
--
Cpd Smiles: c1ccc2c(CSc3nnc(-c4ccncc4)o3)cccc2c1
Value Measured: 0.501 µM (inconclusive)
--
Cpd Smiles: CCOC(=O)c1cc(C(=O)OCC)cc(-n2cc(O)c(C(=O)OCC)n2)c1
Value Measured: 3.16 µM (inconclusive)
--
Cpd Smiles: NC(=O)c1ccc[n+](CC(=O)OCCC23CC4CC(CC(C4)C2)C3)c1
Value Measured: 39.8 µM (inconclusive)

---

Measured EC50 by item
molecular target: Peroxisome proliferator-activated receptor gamma/Nuclear receptor coactivator 2 (Homo sapiens, UniProt P37231); experiment: TR-FRET dose response biochemical High Throughput Screening assay for agonists of the steroid receptor coactivator 2 (SRC-2) recruitment by the peroxisome proliferator-activated receptor gamma (PPAR gamma): non-selective agonists. [Related pubchem assays: 1297, 1032 ]; assay type: functional
Sequence (P37231 whole entry): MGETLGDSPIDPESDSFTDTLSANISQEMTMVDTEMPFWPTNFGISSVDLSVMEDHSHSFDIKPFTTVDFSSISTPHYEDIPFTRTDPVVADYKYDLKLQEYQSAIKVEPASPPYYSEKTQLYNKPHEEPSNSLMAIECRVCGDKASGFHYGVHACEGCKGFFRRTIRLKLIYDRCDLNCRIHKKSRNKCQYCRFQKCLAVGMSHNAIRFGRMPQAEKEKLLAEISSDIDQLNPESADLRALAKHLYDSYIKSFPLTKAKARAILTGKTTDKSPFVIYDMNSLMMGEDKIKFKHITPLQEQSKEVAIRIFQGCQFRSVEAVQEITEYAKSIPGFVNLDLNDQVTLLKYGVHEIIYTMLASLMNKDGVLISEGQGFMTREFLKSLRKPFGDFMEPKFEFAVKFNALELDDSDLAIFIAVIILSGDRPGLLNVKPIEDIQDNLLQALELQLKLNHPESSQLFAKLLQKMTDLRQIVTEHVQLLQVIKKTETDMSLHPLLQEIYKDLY
Sequence (Q15596 whole entry, further chain): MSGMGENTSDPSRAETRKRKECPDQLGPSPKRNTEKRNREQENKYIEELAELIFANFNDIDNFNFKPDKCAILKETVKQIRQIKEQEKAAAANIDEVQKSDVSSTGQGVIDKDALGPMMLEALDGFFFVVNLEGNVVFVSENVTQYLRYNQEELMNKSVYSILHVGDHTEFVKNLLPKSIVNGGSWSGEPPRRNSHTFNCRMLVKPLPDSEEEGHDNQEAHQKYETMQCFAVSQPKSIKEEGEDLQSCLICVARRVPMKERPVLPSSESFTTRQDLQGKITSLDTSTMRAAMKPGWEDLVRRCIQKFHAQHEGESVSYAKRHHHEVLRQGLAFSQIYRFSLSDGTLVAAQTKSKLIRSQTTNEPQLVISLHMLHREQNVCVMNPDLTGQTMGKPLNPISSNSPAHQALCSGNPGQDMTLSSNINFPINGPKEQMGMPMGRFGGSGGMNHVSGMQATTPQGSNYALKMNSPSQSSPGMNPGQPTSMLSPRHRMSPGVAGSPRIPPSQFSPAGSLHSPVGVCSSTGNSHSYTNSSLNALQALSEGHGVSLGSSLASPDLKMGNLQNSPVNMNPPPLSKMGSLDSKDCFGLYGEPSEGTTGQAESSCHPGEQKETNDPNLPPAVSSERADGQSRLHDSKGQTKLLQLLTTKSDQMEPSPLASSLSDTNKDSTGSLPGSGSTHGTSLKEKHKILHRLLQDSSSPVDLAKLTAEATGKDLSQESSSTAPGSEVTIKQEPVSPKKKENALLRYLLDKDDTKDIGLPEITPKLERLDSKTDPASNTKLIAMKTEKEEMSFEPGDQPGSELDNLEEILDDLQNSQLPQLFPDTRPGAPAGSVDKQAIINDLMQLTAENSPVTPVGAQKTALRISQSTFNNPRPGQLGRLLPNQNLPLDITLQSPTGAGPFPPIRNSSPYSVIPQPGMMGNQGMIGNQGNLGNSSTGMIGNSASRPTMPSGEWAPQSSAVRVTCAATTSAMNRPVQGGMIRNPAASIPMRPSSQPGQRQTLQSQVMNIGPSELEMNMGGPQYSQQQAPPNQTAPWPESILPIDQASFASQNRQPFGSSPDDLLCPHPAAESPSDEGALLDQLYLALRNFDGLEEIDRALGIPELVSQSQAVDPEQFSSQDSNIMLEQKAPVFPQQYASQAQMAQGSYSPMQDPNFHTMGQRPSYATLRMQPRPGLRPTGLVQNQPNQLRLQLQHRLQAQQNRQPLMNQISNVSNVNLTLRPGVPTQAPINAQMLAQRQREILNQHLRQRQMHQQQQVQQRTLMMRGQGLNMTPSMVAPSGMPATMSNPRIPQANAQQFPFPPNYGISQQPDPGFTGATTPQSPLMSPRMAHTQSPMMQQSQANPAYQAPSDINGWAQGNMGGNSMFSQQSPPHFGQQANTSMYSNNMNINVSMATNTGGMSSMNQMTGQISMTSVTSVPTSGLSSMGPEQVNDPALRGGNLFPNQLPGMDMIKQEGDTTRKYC

Compound: O=C(Sc1nnc(-c2ccccc2)o1)N1c2ccccc2Sc2ccccc21
EC50: 20.8 µM (not active)
--
Compound: CCC(C(=O)Nc1nnc(-c2ccco2)s1)c1ccccc1 (centres undefined)
EC50: 43.6 µM (not active)
--
Compound: Cn1c(=O)cc(SCC(=O)NCc2cccnc2)c2ccccc21
EC50: > 79.4 µM (not active)
--
Compound: Cc1ccc(-n2c(S)nnc2-c2ccccc2)cc1
EC50: 18.4 µM (not active)

---

Observed AC50 values for Cytochrome P450 2D6 (Homo sapiens, UniProt P10635) are listed in what follows.
Quantity Measured: AC50

Compound: N#Cc1cccc(NC(=O)N2CC3(CCN(C(=O)c4cc(C(F)(F)F)cc(C(F)(F)F)c4)CC3)C2)c1
Quantity Measured: AC50
Value Measured: 20 µM (inconclusive)

Compound: c1cc(CN2CC3(CCNCC3)C2)ccn1
Quantity Measured: AC50
Value Measured: 39.8 µM (inconclusive)

Compound: CS(=O)(=O)Nc1cccc(-c2cncnc2Nc2ccc(F)cc2)c1
Quantity Measured: AC50
Value Measured: 20 µM (inconclusive)

Compound: O=C(c1cnn(-c2ccccc2)c1)c1ccc2ccccc2c1O
Quantity Measured: AC50
Value Measured: 7.08 µM (inconclusive)

Compound: CNc1nc(-c2ccccc2C(F)(F)F)nc2ccccc12
Quantity Measured: AC50
Value Measured: 20 µM (inconclusive)

Compound: O=C(CSc1nnc(-c2ccc(Cl)cc2Cl)n1C1CCCCC1)NC1CCS(=O)(=O)C1 (stereo unspecified)
Quantity Measured: AC50
Value Measured: 35.5 µM (inconclusive)

---

molecular target: Long-chain-fatty-acid--AMP ligase FadD28 (Mycobacterium tuberculosis); assay: Fluorescence polarization aasay to screen for inhibitors that compete for the binding of FadD28 to a bisubstrate Measured in Biochemical System Using Plate Reader - 2147-01_Inhibitor_Dose_CherryPick_Activity.; type: functional, Mycobacterium tuberculosis H37Rv
Sequence (P9WQ59 whole entry): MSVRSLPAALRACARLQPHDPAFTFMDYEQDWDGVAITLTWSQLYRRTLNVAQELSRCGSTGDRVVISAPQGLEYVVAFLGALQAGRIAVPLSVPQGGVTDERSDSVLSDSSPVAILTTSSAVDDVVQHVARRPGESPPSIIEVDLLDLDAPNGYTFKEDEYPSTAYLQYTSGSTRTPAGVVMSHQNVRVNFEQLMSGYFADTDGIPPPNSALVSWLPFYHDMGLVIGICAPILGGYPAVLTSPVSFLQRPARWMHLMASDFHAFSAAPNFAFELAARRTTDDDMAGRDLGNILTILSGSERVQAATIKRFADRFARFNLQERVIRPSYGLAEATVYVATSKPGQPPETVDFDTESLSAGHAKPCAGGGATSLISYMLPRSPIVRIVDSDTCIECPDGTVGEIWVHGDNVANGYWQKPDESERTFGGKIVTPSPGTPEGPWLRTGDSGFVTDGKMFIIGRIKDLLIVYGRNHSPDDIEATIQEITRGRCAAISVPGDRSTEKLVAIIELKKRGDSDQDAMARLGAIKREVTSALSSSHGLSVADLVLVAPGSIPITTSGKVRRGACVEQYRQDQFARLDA
Activity calls are given as the source filed them.
Outcome codes: active, inactive

Cpd Smiles: COc1ccccc1NC(=O)Cn1cnc2c(oc3nc4c(cc32)CCCC4)c1=O
Label: active
--
Cpd Smiles: Cc1[nH]c2ccccc2c1/C=C1/C(=N)N2C(=NC1=O)SN=C2S(=O)(=O)CC(C)C
Label: inactive
--
Cpd Smiles: CN(C)c1ccc(/C=C2/C(=O)N(CCc3ccc(F)cc3)C(=O)N=C2O)cc1
Label: active
--
Cpd Smiles: Cc1c(C)n(C)c2ccc(C(=O)NCc3cccs3)cc12
Label: active

---

system: H4; experiment: Luminescence Cell-Based Dose Response HTS to Identify Activators of 5'UTR Stem-Loop Driven Prion Protein mRNA Translation in H4 Neuroglioblastoma Cells. [Related pubchem assays: 1829 (Project Summary), 1814 (Primary HTS)]; assay type: functional; settings: Homo sapiens
Active and inactive are the calls of the source.
Measured EC50 by item

Compound: CC(C)c1ccc(-c2cc(C(=O)N3N=C(C(F)F)CC3(O)C(F)F)c3ccccc3n2)cc1 (configuration not stated)
Tested On: H4
EC50: 10 µM (active)
//
Compound: CCn1cc(C(=O)O)c(=O)c2cnc(N3CCN(C(=S)Nc4ccccc4Cl)CC3)nc21
Tested On: H4
EC50: > 120 µM (not active)
//
Compound: CC(C)(C)c1ccc(OC(=O)N2CCCCC2)cc1
Tested On: H4
EC50: 44.5 µM (active)
//
Compound: Cc1ccc(-n2nnnc2SCC(=O)Nc2sc(C)c(C)c2C#N)cc1C
Tested On: H4
EC50: > 120 µM (not active)
//
Compound: O=C(CSCC(=O)N1CCCCC1)Nc1nc(-c2ccc(Cl)s2)cs1
Tested On: H4
EC50: 10.9 µM (active)
//
Compound: O=Nc1c(-c2ccccc2)cc2ccccn12
Tested On: H4
EC50: 27.4 µM (active)
//
Compound: COc1ccc2nc(O)c(CN(c3ccccc3OC)S(=O)(=O)c3ccccc3)cc2c1
Tested On: H4
EC50: > 120 µM (not active)
